System: HepG2
protocol description: cells
condition details: Homo sapiens, HepG2, 24 h
Description: Antiproliferative activity against human HepG2 cells assessed as reduction in cell viability after 24 hrs by MTT assay
pIC50: −log10 of the molar value.
measure: pIC50

Prompt line: Recall and state the measured pIC50 for Cc1cccc(-n2cc(-c3ccc(NS(=O)(=O)c4c[nH]c(=O)[nH]c4=O)cc3)nn2)c1 .
Response line: < 4.70

Prompt line: Recall and state the measured pIC50 for O=c1[nH]cc(S(=O)(=O)Nc2ccccc2-c2cn(-c3ccc(F)cc3)nn2)c(=O)[nH]1 .
Response line: < 4.70

Prompt line: Recall and state the measured pIC50 for O=c1[nH]cc(S(=O)(=O)Nc2cccc(-c3cn(-c4ccc(F)cc4)nn3)c2)c(=O)[nH]1 .
Response line: < 4.70

Entry source: ChEMBL document CHEMBL4346687
